Taken from ChEMBL document CHEMBL3507680.

Consider the following compounds and their measured cytotoxicity at 70.5 h readings.
test: Human HepG2 cell viability assay in 384 well format; assay type: toxicity, cell-based; parameters: dose 125 nL, time 70.5 hour; concentration not given beside the values; settings: HepG2 cells, read-out: Inhibition
The answer is to be given in %; state only the numeric part.

Cc1nc(C)n(CC2CCCN(Cc3cccnc3)C2)n1 (centres undefined)
-0.814
CN1CCN2C(=O)N(c3ccccc3)C[C@H]2C1
-0.222
CO[C@H]1CN(C(=O)c2ccnnc2)[C@@H]2COC[C@H]12
36.6
COC(=O)CN1CCC(C(F)(F)F)CC1
-2.55
CC(=O)N[C@@H]1CN(C(=O)c2cccc(C(F)(F)F)c2)C[C@H]1O
-4.74
CN(C)CCn1c2c(ccc1=O)CC(NC(=O)c1ccsc1)CC2 (centres undefined)
11.3
CCOCCN1C[C@@H]2CCCO[C@@H]2[C@H](NC(=O)c2cnoc2C)C1
-6.18
COCc1nc(C(=O)N2CCCC2c2ccncc2)cs1 (centres undefined)
-1.03

Kindly indicate its recorded cytotoxicity at 70.5 h. Item: `Cn1cc(NC(=O)N2CCC(NS(C)(=O)=O)CC2)ccc1=O`
2.55

Kindly indicate its recorded cytotoxicity at 70.5 h. Item: `Cc1ccc(-c2cc(CNC(=O)N3CCC(CO)CC3)on2)cc1`
5.23

Kindly indicate its recorded cytotoxicity at 70.5 h. Item: `CCN(CC)Cc1ccccc1NCc1c(C)noc1C`
-0.774

Kindly indicate its recorded cytotoxicity at 70.5 h. Item: `CN1CCCN(C[C@@H]2CN(C(=O)CCC3CCCC3)C[C@@H]2CO)CC1`
-7.86

Kindly indicate its recorded cytotoxicity at 70.5 h. Item: `O=C(c1cnns1)N1CCN(Cc2ccc(F)cc2Cl)CC1`
-4.81

Kindly indicate its recorded cytotoxicity at 70.5 h. Item: c1cc(CN2CCC3(CC2)COC(COCC2CC2)C3)cs1 (centres undefined)
-6.27

Kindly indicate its recorded cytotoxicity at 70.5 h. Item: `CCC(=O)N1CCN(C(=O)Cn2cccn2)CC1`
-4.66

Kindly indicate its recorded cytotoxicity at 70.5 h. Item: CN(C)c1ccc(C(=O)N2CCCC(n3cccn3)C2)nn1 (centres undefined)
-4.36

Kindly indicate its recorded cytotoxicity at 70.5 h. Item: CCOc1ccc(CC(CNC(=O)c2ccc(C)s2)C(N)=O)cc1 (centres undefined)
4.65

Kindly indicate its recorded cytotoxicity at 70.5 h. Item: COCC(=O)N1CCC2(CC1)COC(COCc1ccccn1)C2 (centres undefined)
1.98

Kindly indicate its recorded cytotoxicity at 70.5 h. Item: CC(NCCCC#N)c1ccc(-c2cccnc2)cc1 (centres undefined)
-2.12

Kindly indicate its recorded cytotoxicity at 70.5 h. Item: O=C(CSC1CCc2ccccc2NC1=O)NCCc1ccco1 (centres undefined)
7.74

Kindly indicate its recorded cytotoxicity at 70.5 h. Item: `Cc1nc(CCN2CCC(Oc3ccccc3F)CC2)c(C)s1`
8.34

Kindly indicate its recorded cytotoxicity at 70.5 h. Item: Cc1ccc(Nc2ncnc3c2CCN(CC2CCOC2)CC3)cc1 (centres undefined)
-7.38

Kindly indicate its recorded cytotoxicity at 70.5 h. Item: CN1Cc2ccccc2CC1C(=O)N1CCN(CCS(C)(=O)=O)CC1 (centres undefined)
5.5

Kindly indicate its recorded cytotoxicity at 70.5 h. Item: `Cc1cccc(CSc2ncc(Br)c(C(=O)O)n2)c1`
-8.53
